// provenance: patent US20240409629A1

target: human CLDN18.2 (human); assay: cell-based or functional assay
Quantity: ADCC EC50, Jurkat-CD16a v158-NFAT-luciferase effector cells, U2OS-CLDN18.2 target cells
Write your answer as a measured quantity: the number, then the unit.

{"columns": ["Binder", "Observed result"],
 "data": [
  ["humanized antibody hz28G3-1.4 (antibody, human IgG1, kappa, V domains shown) VH: QVQLVQSGAEVKKPGASVKVSCKASGYTFTDYLMLWVRQAHGQSLEWMGNINPYYGRTYYALKFQGRVTMTVDRSTSTVYMELSSLRSEDTAVYYCARDGYSLRNAMDYWGQGTLVTVSS VL: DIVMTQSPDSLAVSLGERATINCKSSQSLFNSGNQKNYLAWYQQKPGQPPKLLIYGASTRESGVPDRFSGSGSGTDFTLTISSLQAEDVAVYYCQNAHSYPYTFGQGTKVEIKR", "0.017 nM"]
]}

State, in one line, measured ADCC EC50, Jurkat-CD16a v158-NFAT-luciferase effector cells, U2OS-CLDN18.2 target cells of IMAB362 (antibody, human IgG1, kappa, V domains shown, Positive control, prepared in-house; also called Claudiximab; TMAB362 [sic]) VH: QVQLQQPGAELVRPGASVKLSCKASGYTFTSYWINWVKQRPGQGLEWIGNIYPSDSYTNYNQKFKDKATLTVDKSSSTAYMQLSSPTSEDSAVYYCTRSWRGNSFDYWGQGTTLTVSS VL: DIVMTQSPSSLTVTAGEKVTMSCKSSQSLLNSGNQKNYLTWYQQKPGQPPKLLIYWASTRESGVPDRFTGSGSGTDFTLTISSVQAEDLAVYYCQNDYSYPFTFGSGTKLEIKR
0.014 nM

State, in one line, measured ADCC EC50, Jurkat-CD16a v158-NFAT-luciferase effector cells, U2OS-CLDN18.2 target cells of humanized antibody hz28G3-2.3 (antibody, human IgG1, kappa, V domains shown) VH: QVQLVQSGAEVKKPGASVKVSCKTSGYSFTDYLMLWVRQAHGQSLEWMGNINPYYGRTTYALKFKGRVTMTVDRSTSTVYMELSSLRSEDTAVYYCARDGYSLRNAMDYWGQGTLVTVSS VL: DIVMTQSPYSLAVSLGERATINCKSSQSLFNSGNQKNYLAWYQQKPGQPPKLLIYGASTRESGVPDRFTGSGSGTDFTLTISSLQAEDVAVYYCQNAHSYPYTFGQGTKVEIKR
0.019 nM
